Target: Cytochrome P450 2C19 (Homo sapiens)
Sequence (P33261 whole entry, canonical isoform): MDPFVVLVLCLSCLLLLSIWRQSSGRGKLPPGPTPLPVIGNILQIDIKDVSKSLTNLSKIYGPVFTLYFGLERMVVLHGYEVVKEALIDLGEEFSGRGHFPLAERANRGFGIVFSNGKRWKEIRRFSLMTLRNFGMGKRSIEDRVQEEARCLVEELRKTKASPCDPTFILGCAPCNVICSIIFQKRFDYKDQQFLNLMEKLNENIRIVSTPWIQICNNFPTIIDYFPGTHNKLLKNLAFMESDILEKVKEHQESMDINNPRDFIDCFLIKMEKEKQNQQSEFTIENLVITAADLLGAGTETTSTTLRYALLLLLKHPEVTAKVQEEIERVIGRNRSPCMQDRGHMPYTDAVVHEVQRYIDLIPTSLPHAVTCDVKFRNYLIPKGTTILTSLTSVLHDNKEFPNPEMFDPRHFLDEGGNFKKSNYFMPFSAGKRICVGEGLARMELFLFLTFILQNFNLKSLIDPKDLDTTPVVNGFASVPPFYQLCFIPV
Assay: Interaction with human cytochrome P450 isoform 2C19 expressed in baculovirus-insect cells
Format: ADME

- COMPOUND: "CC1(C)CCC(c2ccc(-c3ccc(C4(C(=O)O)CC4)cc3F)cc2)CC1"
  MEASURED ON: "Cytochrome P450 2C19 (Homo sapiens)"
  MEASUREMENT UNITS: "µM"
  IC50: 13
- COMPOUND: "O=C(O)C1(c2ccc(-c3ccc(-c4ccc(O)cc4)cc3)c(F)c2)CC1"
  MEASURED ON: "Cytochrome P450 2C19 (Homo sapiens)"
  MEASUREMENT UNITS: "µM"
  IC50: 35
- COMPOUND: "COc1ccc(-c2ccc(C(C)C(=O)O)cc2F)cc1 (centres undefined)"
  MEASURED ON: "Cytochrome P450 2C19 (Homo sapiens)"
  MEASUREMENT UNITS: "µM"
  IC50: 87
- COMPOUND: "O=C(O)C1(c2ccc(-c3ccc(C(F)(F)F)cc3)c(F)c2)CC1"
  MEASURED ON: "Cytochrome P450 2C19 (Homo sapiens)"
  MEASUREMENT UNITS: "µM"
  IC50: 71
- COMPOUND: "O=C(O)C1(c2ccc(-c3ccc(-c4ccc(F)cc4)c(F)c3)c(F)c2)CC1"
  MEASURED ON: "Cytochrome P450 2C19 (Homo sapiens)"
  MEASUREMENT UNITS: "µM"
  IC50: 46
- COMPOUND: "CC(C(=O)O)c1ccc(-c2ccc(-c3ccc(O)cc3)cc2)c(F)c1 (centres undefined)"
  MEASURED ON: "Cytochrome P450 2C19 (Homo sapiens)"
  MEASUREMENT UNITS: "µM"
  IC50: 58
- COMPOUND: "CC1(C)CC(Oc2ccc(-c3ccc(C4(C(=O)O)CC4)cc3F)cc2)CC(C)(C)C1"
  MEASURED ON: "Cytochrome P450 2C19 (Homo sapiens)"
  MEASUREMENT UNITS: "µM"
  IC50: 33
- COMPOUND: "O=C(O)C1(c2ccc(-c3ccc(Cl)c(Cl)c3)c(F)c2)CC1"
  MEASURED ON: "Cytochrome P450 2C19 (Homo sapiens)"
  MEASUREMENT UNITS: "µM"
  IC50: 25
- COMPOUND: "O=C(O)C1(c2ccc(-c3ccc(-c4ccc(O)cc4)c(F)c3)c(F)c2)CC1"
  MEASURED ON: "Cytochrome P450 2C19 (Homo sapiens)"
  MEASUREMENT UNITS: "µM"
  IC50: 74

The origin of these recorded values is ChEMBL document CHEMBL1141070.
